Catalogue of molecules with associated Percentage of family specific sensitive PDE activity, 3 h Liquid semen
Tested on: 3′-5′ cAMP-PDE activity in bovine spermatozoa
Test: 3′-5′ cAMP-PDE assay with family-specific PDE inhibitors in bovine spermatozoa
Format: biochemical
Settings: bovine spermatozoa after 3 h in liquid semen extender at 18° C.
Value expressed in %; do not type the unit.

Solved cases below.
> print(dat)
                                   molecule  obsvalue
1     COc1ccc(Cc2nccc3cc(OC)c(OC)cc23)cc1OC        56
2         CC(C)Cn1c(=O)n(C)c(=O)c2[nH]cnc21        96
3  COc1ccc(C2CNC(=O)C2)cc1OC1CCCC1 (stereo not shown)        11

Consider the additional molecule presented here.
Q: Report value: Percentage of family specific sensitive PDE activity, 3 h Liquid semen, system: 3′-5′ cAMP-PDE activity in bovine spermatozoa, molecule: CN(C(=O)CCCOc1ccc2[nH]c(=O)ccc2c1)C1CCCCC1 [Cilostamide]
Ans: 7

* * *

Test system: 3′-5′ cAMP-PDE activity in bovine spermatozoa
Assay: 3′-5′ cAMP-PDE assay with family-specific PDE inhibitors in bovine spermatozoa
Format: biochemical
Conditions: bovine spermatozoa, 1 μM cAMP; IBMX 1 mM, cilostamide 10 μM, rolipram 10 μM, papaverine 400 nM (FIG. 12B)
Each entry below carries its reported Percentage of total PDE activity sensitive to the inhibitor.
Write down the numeric answer in % and omit the unit.

// solved cases for Percentage of total PDE activity sensitive to the inhibitor follow
> print(dat)
                                   compound  obsvalue
1     COc1ccc(Cc2nccc3cc(OC)c(OC)cc23)cc1OC        55
2  CN(C(=O)CCCOc1ccc2[nH]c(=O)ccc2c1)C1CCCCC1 [Cilostamide]         9
3         CC(C)Cn1c(=O)n(C)c(=O)c2[nH]cnc21        92

Now consider a different compound.
Q: In one line, give reported Percentage of total PDE activity sensitive to the inhibitor of the entry COc1ccc(C2CNC(=O)C2)cc1OC1CCCC1 (stereo not shown) .
Ans: 11
